target: human ether-à-go-go-related gene (hERG) potassium channel (human, UniProt Q12809); assay: primary screen, population patch clamp on CHO cells stably expressing hERG; higher = less effect of the substance
Sequence (Q12809 whole entry, looked up): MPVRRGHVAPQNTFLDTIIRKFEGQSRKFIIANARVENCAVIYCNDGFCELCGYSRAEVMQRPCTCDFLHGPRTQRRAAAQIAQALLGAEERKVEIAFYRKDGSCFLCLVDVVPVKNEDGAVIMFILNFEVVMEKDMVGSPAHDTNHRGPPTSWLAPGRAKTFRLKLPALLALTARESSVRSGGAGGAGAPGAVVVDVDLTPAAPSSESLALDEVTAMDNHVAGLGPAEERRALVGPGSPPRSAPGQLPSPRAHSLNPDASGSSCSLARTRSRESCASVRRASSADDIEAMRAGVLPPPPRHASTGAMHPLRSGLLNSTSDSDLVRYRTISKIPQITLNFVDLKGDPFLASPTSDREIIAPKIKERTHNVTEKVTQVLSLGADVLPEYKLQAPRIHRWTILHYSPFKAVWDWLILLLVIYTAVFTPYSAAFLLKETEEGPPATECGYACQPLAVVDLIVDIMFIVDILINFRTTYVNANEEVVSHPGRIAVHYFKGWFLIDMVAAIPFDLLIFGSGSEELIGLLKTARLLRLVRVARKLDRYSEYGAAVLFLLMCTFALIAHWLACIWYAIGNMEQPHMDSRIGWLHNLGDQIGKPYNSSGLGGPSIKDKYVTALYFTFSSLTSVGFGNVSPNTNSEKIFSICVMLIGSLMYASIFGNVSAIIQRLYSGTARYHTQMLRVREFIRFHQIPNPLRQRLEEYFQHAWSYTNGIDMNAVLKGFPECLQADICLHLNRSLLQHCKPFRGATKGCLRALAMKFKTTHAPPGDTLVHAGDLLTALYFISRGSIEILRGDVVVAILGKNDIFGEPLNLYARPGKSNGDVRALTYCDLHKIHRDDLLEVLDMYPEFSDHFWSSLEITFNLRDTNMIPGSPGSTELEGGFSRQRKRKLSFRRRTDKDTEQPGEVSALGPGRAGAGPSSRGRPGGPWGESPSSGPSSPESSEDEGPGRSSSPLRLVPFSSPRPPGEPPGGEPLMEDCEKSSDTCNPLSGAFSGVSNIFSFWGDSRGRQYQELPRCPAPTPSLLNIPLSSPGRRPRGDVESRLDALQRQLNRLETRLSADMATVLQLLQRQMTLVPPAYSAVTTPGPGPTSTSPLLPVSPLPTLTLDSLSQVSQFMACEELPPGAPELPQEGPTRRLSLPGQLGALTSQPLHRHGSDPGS
Out of some 310,000 compounds screened, about 2,200 (0.71%) showed an effect of 50% or more. Effects have a minus sign here. The sample as a whole holds a higher share of strong results than the screen did.
Answer Condition not met if hERG current change (%, negative = inhibition) at 1uM is under -10%, and Condition met if it is -10% or more.

INSERT INTO measurements (smiles_code, label) VALUES
  ('O=c1ccc(-c2nc3ccccc3n2Cc2ccc(Cl)cc2)c[nH]1', 'Condition not met');

// inclusive: hERG current change (%, negative = inhibition) at 1uM at least -10%? input: O=c1ccc(-c2nc3cc(Cl)ccc3n2Cc2ccccc2)c[nH]1
Condition not met

// inclusive: hERG current change (%, negative = inhibition) at 1uM at least -10%? input: O=c1ccc(-c2nc3ccccc3n2Cc2ccccc2Cl)c[nH]1
Condition met

----------
target: human ether-à-go-go-related gene (hERG) potassium channel (human, UniProt Q12809); test: primary screen, population patch clamp on CHO cells stably expressing hERG; higher = less effect of the substance
Among all 310,000 compounds or so, about 2,200 (0.71%) showed an effect of 50% or more. Effects have a minus sign here. Shown is part of a subset that was picked to be rich in strong results.
Parameter: hERG current change (%, negative = inhibition) at 1uM. Scope: all listed entries.
Report the figure in % without appending any unit label.

Examples with their reported hERG current change (%, negative = inhibition) at 1uM follow.
INSERT INTO assay_data (smiles_code, target_system, numeric_readout) VALUES
  ('Cc1ccc(SCc2nc3ccccc3n2CC(=O)Nc2c(C)cccc2C)cc1', 'human ether-à-go-go-related gene (hERG) potassium channel (human, UniProt Q12809)', 6.88),
  ('C[C@]1(C(=O)NCCc2c[nH]c3ccccc23)C=C[C@@H](Cc2ccccc2)N1C(=O)c1ccccc1', 'human ether-à-go-go-related gene (hERG) potassium channel (human, UniProt Q12809)', 7.98),
  ('COc1ccccc1S(=O)(=O)Cc1ccc(C(=O)NCCN2CCCCCC2)o1', 'human ether-à-go-go-related gene (hERG) potassium channel (human, UniProt Q12809)', 9.15),
  ('COc1ccccc1S(=O)(=O)Cc1ccc(C(=O)NCCN2CCCC2)o1', 'human ether-à-go-go-related gene (hERG) potassium channel (human, UniProt Q12809)', 14.2);

Here is another compound to look at.
Item under review: O=C(NCCCN1CCCC1)c1ccc(CS(=O)(=O)c2ccc(Cl)cc2)o1 . Reported hERG current change (%, negative = inhibition) at 1uM?
18.1

----------
Parameter: hERG current change (%, negative = inhibition) at 1uM. Scope: all listed entries.
Target: human ether-à-go-go-related gene (hERG) potassium channel (human)
Test: primary screen, population patch clamp on CHO cells stably expressing hERG; higher = less effect of the substance
Description: Briefly, Chinese hamster ovary (CHO) cells stably expressing the hERG channel were dislodged from tissue culture flasks and dispensed into PPC plates. […] Small molecule effects on hERG current density were quantified by […].
About 2,200 (0.71%) of roughly 310,000 compounds showed an effect of 50% or more. The effect is printed as a negative number. For the sample, strong results were picked, then their nearest neighbours and some compounds at random.

Examples with their reported hERG current change (%, negative = inhibition) at 1uM follow.
INSERT INTO assay_data (compound, result) VALUES
  ('O=C(C1=C(O)C(=O)N(CCCN2CCOCC2)C1c1ccc(Cl)cc1)c1cc2ccccc2o1 (centres unmarked)', '15.8%'),
  ('O=C(OCC(=O)C12CC3CC(CC(C3)C1)C2)c1cnccn1', '8.15%'),
  ('O=C(CN1CCN(C(=O)c2ccccc2F)CC1)Nc1ccc(Br)cc1', '-56.5%'),
  ('O=C(CNC(=O)/C(=C\c1ccc(F)cc1)NC(=O)c1ccccc1)OCc1ccccc1', '-69%'),
  ('CCOc1ccc(NS(=O)(=O)c2ccc(SC)cc2)cc1', '0.548%'),
  ('O=C(Nc1ccc(N2CCN(C(=O)c3cccs3)CC2)cc1)c1ccc(Br)o1', '-52.7%'),
  ('CN(Cc1ccccc1)C(=O)CN1C(=O)NC(C)(c2ccc(Cl)cc2)C1=O (centres unmarked)', '12.8%'),
  ('O=c1c2cn[nH]c2[nH]c(=S)n1-c1ccccc1', '14.3%'),
  ('CCOC(=O)[C@H]1[C@H]2COc3ccc(OC)cc3[C@@H]2N2C(=O)c3cc(OC)c(OC)cc3NC(=O)[C@@]12C', '5.4%'),
  ('O=C(CCCNC(=O)/C(=C/c1ccc(Br)cc1)NC(=O)c1ccccc1)OCc1ccccc1', '-2.58%');

Under human ether-à-go-go-related gene (hERG) potassium channel (human): hERG current change (%, negative = inhibition) at 1uM value of O=C(CNC(=O)/C(=C/c1ccccc1)NC(=O)c1ccc(Br)cc1)OCc1ccccc1 ?
2.24%

Under human ether-à-go-go-related gene (hERG) potassium channel (human): hERG current change (%, negative = inhibition) at 1uM value of N#Cc1ccc(CSc2nnc(-c3ccncc3)n2CCc2ccccc2)cc1 ?
-78.2%

Under human ether-à-go-go-related gene (hERG) potassium channel (human): hERG current change (%, negative = inhibition) at 1uM value of O=C(CNC(=O)/C(=C\c1ccc(Br)cc1)NC(=O)c1ccccc1)OCc1ccccc1 ?
-48%

Under human ether-à-go-go-related gene (hERG) potassium channel (human): hERG current change (%, negative = inhibition) at 1uM value of O=C(O)c1ccc(SCc2cnc(Cl)s2)cc1 ?
-79.6%

Under human ether-à-go-go-related gene (hERG) potassium channel (human): hERG current change (%, negative = inhibition) at 1uM value of CCOC(=O)CNC(=O)/C(=C\c1ccc(F)cc1)NC(=O)c1ccccc1 ?
-11.7%
